Biological target: T1, Human Nectin-4 Protein, His Tag (human, UniProt Q96NY8 32-349)
T1 construct: not shown: His tag
T1 sequence (looked up): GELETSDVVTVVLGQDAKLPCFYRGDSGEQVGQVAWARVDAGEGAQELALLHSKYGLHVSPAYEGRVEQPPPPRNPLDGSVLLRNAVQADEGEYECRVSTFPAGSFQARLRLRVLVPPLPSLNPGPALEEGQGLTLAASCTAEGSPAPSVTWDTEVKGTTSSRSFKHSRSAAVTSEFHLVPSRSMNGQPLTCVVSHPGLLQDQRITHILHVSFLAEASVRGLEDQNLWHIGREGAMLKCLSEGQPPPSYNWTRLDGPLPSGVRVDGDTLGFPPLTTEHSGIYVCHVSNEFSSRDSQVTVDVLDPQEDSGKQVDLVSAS
Test: BLI (Fortebio), antibody with human Nectin-4 protein
pKd: −log10 of the molar value.
Readout Label: pKd

* humanized antibody SWY2001-Ab2 (antibody, human IgG1, kappa, V domains shown, Full-length IgG1, kappa) VH: QVQLVQSGAEVKKPGASVKVSCKASGYTFTSYYIHWVRQAPGQRLEWMGWIYPGNVNTKYNENFRDRVTITRDTSASTAYMELSSLRSEDTAVYYCARGIYYFDYWGQGTLVTVSS VL: AIQMTQSPSSLSASVGDRVTITCKASQSVNNDVAWYQQKPGKAPKLLIYYASNRDTGVPSRFSGSGSGTDFTLTISSLQAEDLAVYFCHQDYSSPFTFGGGTKVEIKR | 8.26
